# run_description: gradient 5% acetonitrile 3 min, to 50% in 2 min, to 85% in 15 min, held 3 min, 100 µL/min
# experimental_conditions: column: Zorbax Extend-C18 2.1 x 50 mm; eluents: water / acetonitrile, 0.1% formic acid
quantity: RP-LC retention time (s)
The reply should be a number in s, with the unit left off.

IN: Name the recorded RP-LC retention time for `CCn1c(=O)oc2cc(-c3noc(-c4cc(C)cc(C)c4)n3)ccc21` .
OUT: 1300

IN: Another compound to look at: Cc1ccc(S(=O)(=O)N2CC(=O)N(c3ccccc3C)C(C)(C(=O)NC3CCCC3)C2)cc1 (stereo not given)
OUT: 991

IN: Ok, now `O=C1CCCc2nc(N3CCN(c4ccccc4F)CC3)ncc21`
OUT: 1060

IN: Item: `CCc1nnc2nc(N3CCN(C(=O)Cc4cccs4)CC3)cc(C)n12`
OUT: 613

IN: What would you report for `CCOC(=O)c1cc(C2CC2)nc2c1c(=O)n(Cc1ccc(C)cc1)c(=O)n2C` ?
OUT: 1260

IN: Okay, and `O=C(N[C@H]1C[C@@H]2C[C@H]1CN2S(=O)(=O)c1ccccc1C(F)(F)F)c1ccccc1` ?
OUT: 921

IN: Now this one: CCC(=O)N1CCN(c2nc3c(s2)CC(C(=O)O)CC3)CC1 (stereo not given)
OUT: 578

IN: Would you mind doing `O=C(O)c1cccc2c1CCN2S(=O)(=O)c1ccccc1F` as well?
OUT: 812

Others:
IN: Item under review: `CCOc1ccc(-c2csc3c(=O)n(Cc4ccccn4)cnc23)cc1OCC` . Reported RP-LC retention time?
OUT: 865

IN: Request: `Cc1cc(N2C=C(C(=O)N3CCCC3)S(=O)(=O)c3ccc(F)cc32)ccc1F`
OUT: 854

###

# run_description: gradient 5% acetonitrile 3 min, to 50% in 2 min, to 85% in 15 min, held 3 min, 100 µL/min
# experimental_conditions: column: Zorbax Extend-C18 2.1 x 50 mm; eluents: water / acetonitrile, 0.1% formic acid
Classes (RP-LC retention time): range A: < 800 s; range B: ≥ 800 s and < 1000 s; range C: ≥ 1000 s

Field: example entries. Status: answers known.
IN: Bin? `COC(=O)C1=CN(c2ccc(C)cc2)c2cc(F)ccc2S1(=O)=O`
OUT: range B

IN: What do you have for `O=C(CSc1nnc(-c2ccccc2F)o1)Nc1nccs1` ?
OUT: range A

IN: Next compound up: `COc1ccc(CCn2nnnc2C2(c3ccc(C)cc3)CC2)cc1`
OUT: range C

More entries:
IN: // return the class label for `CC(C)n1nnc2ccc(-c3noc(-c4ccccc4)n3)cc21`
OUT: range C

IN: Same question, CCCCc1ccc(NC(=O)CSc2ccc(N3CCCC(C(=O)NCCC)C3)nn2)cc1 (stereo not given) this time
OUT: range B

IN: Same read-out for CCOC(=O)c1ccc(NC(=O)Cn2nc(N3CCCC(C)C3)c3ccccc3c2=O)cc1 (stereo not given) ?
OUT: range C

IN: How about this compound: O=C(Nc1ccccc1)C1CCCN(S(=O)(=O)Cc2ccccc2)C1 (stereo not given)
OUT: range B

IN: Then this compound: `CCCn1cc(C(=O)NC2CCCC2)c2nn(-c3ccccc3)c(=O)c-2c1`
OUT: range A

###

# run_description: gradient 5% acetonitrile 3 min, to 50% in 2 min, to 85% in 15 min, held 3 min, 100 µL/min
# experimental_conditions: column: Zorbax Extend-C18 2.1 x 50 mm; eluents: water / acetonitrile, 0.1% formic acid
Respond with Condition met for RP-LC retention time values of 900 s and above, Condition not met for values below.

IN: Form field: RP-LC retention time at least 900 s? Entry: `COc1ccc(C)c2sc(NC(=O)c3cc(C)no3)nc12`
OUT: Condition not met

---
IN: Reported RP-LC retention time reaches at least 900 s for `Cc1ccn2c(NC(=O)c3ccc4ccccc4c3)c(-c3ccc(F)cc3)nc2c1` ?
OUT: Condition not met

IN: And the next one, `CC1=C(c2ccc(Cl)cc2)S(=O)(=O)N=C1N1CCCN(C(=O)Cn2ccnc2)CC1` ?
OUT: Condition not met

IN: Item: `Cc1nccn1CC(=O)N1CCCn2cc(-c3ccccc3F)nc21`
OUT: Condition not met

IN: Please give the result for `Cc1cc(=O)n(CC(=O)NCc2ccccc2Br)c(N2CCOCC2)n1` too.
OUT: Condition not met

IN: Query `Cc1cccc(NC(=O)N2CCN(c3cc(N4CCCCC4)ncn3)CC2)c1C` next
OUT: Condition not met

IN: Next compound up: CCOC(=O)C1CCC(CNC(=O)Nc2cc3c(cc2N2CCCC2)n(C)c(=O)n3C)CC1 (configuration not stated)
OUT: Condition not met

IN: Also check `O=C(NCCN1CCCCCC1)c1cc2n(n1)CCCN(Cc1ccc(Cl)cc1)C2=O`
OUT: Condition not met

IN: Also need `CNC(=O)c1c(NC(=O)c2ccc(Cl)cc2)sc2c1CCC2` , thanks.
OUT: Condition met

IN: // same read-out, input: `O=C(NCc1ccc2c(c1)OCO2)c1c(O)c2cccnc2n(-c2ccc(F)cc2)c1=O`
OUT: Condition met

IN: # repeat for Cc1ccc(Cl)cc1N1CCN(C(=O)CN2C(=O)C3C4C=CC(C4)C3C2=O)CC1 (configuration not stated)
OUT: Condition met

IN: Repeat for the following compound: `Cc1nnc(NC(=O)Cc2csc(NC(=O)C3CCCC3)n2)s1`
OUT: Condition not met

IN: Same question, `COc1ccc(OC)c(CNC(=O)c2cn3cccc(C)c3n2)c1` this time
OUT: Condition not met

IN: Do the same for `O=C(Nc1cc(F)ccc1F)c1c(O)c2cccnc2n(-c2cccc(F)c2)c1=O` please
OUT: Condition met

###

# run_description: gradient 5% acetonitrile 3 min, to 50% in 2 min, to 85% in 15 min, held 3 min, 100 µL/min
# experimental_conditions: column: Zorbax Extend-C18 2.1 x 50 mm; eluents: water / acetonitrile, 0.1% formic acid
Entries and their RP-LC retention time values follow.
Give just the numeric value; s need not be written.

Please review the entries below; each comes with its answer.
IN: Please give the measured RP-LC retention time for this compound: `CC(=O)Oc1cc2c(C(=O)NCc3ccccn3)c(C)oc2c2ccccc12`
OUT: 638

IN: What would you report for COc1ccc(NC(=O)N2CCCC(Cn3cnc4cccnc43)C2)cc1 (stereo not drawn) ?
OUT: 610

IN: Same lookup for O=C(c1cnn2cccnc12)N1CCCC1c1ccc(Cl)cc1 (stereo not drawn) , please.
OUT: 766

IN: Try `O=C(Nc1cccc(F)c1)Nc1cccc(-c2ccc(N3CCOCC3)nn2)c1` next.
OUT: 697

IN: Now try `COc1ccc(S(=O)(=O)NCc2c(-c3ccccc3)nc3sc(C)nn23)cc1` .
OUT: 832

Next:
IN: Look at this compound and give its reported RP-LC retention time. `CNS(=O)(=O)c1ccc(Cl)c(-c2nnc(-c3ccc(OC)cc3)o2)c1`
OUT: 883

IN: Also CCc1onc(C)c1C1CCCN1C(=O)Nc1ccc(C(=O)OC)cc1 (stereo not drawn) ?
OUT: 806

IN: Do the same for O=C1CCC2(C(=O)NCC3CC3)CCCC=C2N1c1ccccc1 (stereo not drawn) please
OUT: 726

IN: Continue with Cn1c(=O)c(-c2ccc(C(=O)NCC3CCCO3)cc2)nc2ccccc21 (stereo not drawn)
OUT: 724

IN: Try the compound `CCCn1cc(C(=O)NCc2ccc(N3CCOCC3)cc2)c2cccnc21`
OUT: 734

IN: Now consider `CCc1nc(-c2ccc(-c3noc(CN4C(=O)COc5ccc(Cl)cc54)n3)cc2)cs1` and answer again.
OUT: 1270

IN: And for `Cc1ccc(CN2CCn3c(nn(C)c3=O)C2)cc1C` ?
OUT: 662

IN: And `COc1ccc(OCC(=O)N2CCc3c(c(-c4nnc(-c5ccccc5Cl)o4)nn3C)C2)cc1` ?
OUT: 1010

IN: Same for `CC1CCN(c2cc(-n3cnc(C(=O)N4CCN(C5CCCCC5)CC4)c3)ncn2)CC1`
OUT: 597

###

Entries and their RP-LC retention time
# run_description: gradient 5% acetonitrile 3 min, to 50% in 2 min, to 85% in 15 min, held 3 min, 100 µL/min
# experimental_conditions: column: Zorbax Extend-C18 2.1 x 50 mm; eluents: water / acetonitrile, 0.1% formic acid
Could you give me the number in s? Just the number is fine.

Some compounds with known RP-LC retention time results, for comparison:
IN: Any idea what RP-LC retention time was measured for `CCCc1c(C(=O)O)nnn1Cc1ccccc1Cl` ?
OUT: 796

IN: Entry to check: `NC(=O)Nc1ccc(Nc2ccccc2)cc1`
OUT: 752

IN: Next entry: `CCOC(=O)Cn1cccc(S(=O)(=O)N2CCC(C)CC2)c1=O`
OUT: 814

IN: Now consider `O=S(=O)(NCCOc1ccccc1)c1ccccc1Cl` .
OUT: 869

Further cases:
IN: Value lookup for RP-LC retention time; key = O=C(c1ccc(F)cc1Cl)N1CCN(C(=O)c2nnn3c2COC(c2ccccc2)C3)CC1 (stereo not given)
OUT: 887

IN: Also check Cc1ccc(NC(=O)C2CC(=O)N(c3ccc4oc(C)nc4c3)C2)c(C)c1 (stereo not given)
OUT: 741

IN: Moving on to `CCNc1cc(N2CCC(CCC(=O)Nc3ccc4c(c3)OCCO4)CC2)ncn1`
OUT: 572

IN: // next record `Cc1ccc2c(c1)N(C(=O)Cn1ccn3nc(-c4ccccc4)c(CO)c3c1=O)CCO2`
OUT: 908

IN: Same lookup for `Cc1cc(-c2ccc3c(c2)CCN3C(=O)Cc2ccc(F)cc2)on1` , please.
OUT: 1000

IN: What do we get for `Cc1ccc2nc(C(=O)NCc3ccc(F)cc3F)cn2c1` ?
OUT: 668

IN: Would you mind doing `CC(C)CCNC(=O)CCCn1c2ccccc2c2cnn(C)c(=O)c21` as well?
OUT: 865

IN: Proceed to `O=C(NCc1nnc(SCc2c(F)cccc2Cl)o1)c1cccc(C(F)(F)F)c1`
OUT: 933

IN: What about O=C(CN1C(=O)C2CCCCN2c2ccc(C(=O)N3CCCC3)cc21)Nc1ccc2c(c1)OCO2 (stereo not given) ?
OUT: 794

IN: Also need `CCOc1ccccc1NC(=O)N1CCC2(CC1)NC(=O)c1cc(Cl)ccc1N2C` , thanks.
OUT: 904
